- testedSystem: human purified sGC (heterodimer of sGCα1 and sGCβ1) (Homo sapiens (Human), UniProt Q02108+Q02153)
- Sequence (Q02108 whole entry): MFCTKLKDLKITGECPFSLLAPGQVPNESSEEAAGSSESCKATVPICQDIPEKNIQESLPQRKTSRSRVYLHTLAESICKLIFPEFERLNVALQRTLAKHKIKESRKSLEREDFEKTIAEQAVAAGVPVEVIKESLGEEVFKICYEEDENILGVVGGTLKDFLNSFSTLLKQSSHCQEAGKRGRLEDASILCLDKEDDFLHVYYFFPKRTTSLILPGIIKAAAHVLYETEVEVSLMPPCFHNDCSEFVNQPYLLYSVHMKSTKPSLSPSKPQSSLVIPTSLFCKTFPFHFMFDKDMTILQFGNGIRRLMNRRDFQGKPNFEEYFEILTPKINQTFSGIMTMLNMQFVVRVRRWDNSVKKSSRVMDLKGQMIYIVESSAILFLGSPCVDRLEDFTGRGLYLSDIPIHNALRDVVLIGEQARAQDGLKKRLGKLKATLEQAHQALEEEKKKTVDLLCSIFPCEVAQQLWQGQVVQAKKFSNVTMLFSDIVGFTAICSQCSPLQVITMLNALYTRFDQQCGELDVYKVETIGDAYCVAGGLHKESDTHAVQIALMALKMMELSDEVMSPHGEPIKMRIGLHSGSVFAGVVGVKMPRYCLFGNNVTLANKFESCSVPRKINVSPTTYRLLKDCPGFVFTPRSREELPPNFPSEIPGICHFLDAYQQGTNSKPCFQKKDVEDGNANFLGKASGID
- Sequence (Q02153 whole entry): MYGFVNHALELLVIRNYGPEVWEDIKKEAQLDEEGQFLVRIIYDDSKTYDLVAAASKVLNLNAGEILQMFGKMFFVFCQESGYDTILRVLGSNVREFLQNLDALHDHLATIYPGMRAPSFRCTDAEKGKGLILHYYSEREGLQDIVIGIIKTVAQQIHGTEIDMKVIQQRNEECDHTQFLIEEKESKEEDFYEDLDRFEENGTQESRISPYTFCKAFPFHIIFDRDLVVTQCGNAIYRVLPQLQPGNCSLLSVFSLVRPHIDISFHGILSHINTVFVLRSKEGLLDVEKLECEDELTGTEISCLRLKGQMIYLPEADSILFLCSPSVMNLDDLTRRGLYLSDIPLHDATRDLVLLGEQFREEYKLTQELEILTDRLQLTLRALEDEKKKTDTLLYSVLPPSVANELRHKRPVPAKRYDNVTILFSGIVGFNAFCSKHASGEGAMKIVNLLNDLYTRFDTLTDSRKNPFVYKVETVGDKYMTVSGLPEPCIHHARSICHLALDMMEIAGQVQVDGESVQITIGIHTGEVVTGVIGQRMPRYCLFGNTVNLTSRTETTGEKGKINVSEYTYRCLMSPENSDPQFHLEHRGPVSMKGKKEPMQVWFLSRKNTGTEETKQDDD
- testDescription: sGC activation test (cGMP produced, HTRF)
- conditionDescription: maximum activity of Preparation Example 200 compound (maximum 100 μM) taken as 100%; with SNP; read-out: EC50 (concentration giving 50% of maximum activity)
measureName: pEC50
Give bare numbers, as −log10 of the molar value.

{"molecule": "Cc1nc2c(OCc3c(F)cccc3F)cccn2c1C(=O)NC(C)(CO)c1nnn(C(F)F)n1 (stereo not drawn) [Example 6]", "pEC50": 5.77}
{"molecule": "Cc1cnc([C@](C)(CO)NC(=O)c2c(C)nc3c(OCc4c(F)cccc4F)cccn23)s1 [Example 77]", "pEC50": 5.89}
{"molecule": "Cc1noc(C(C)(CO)NC(=O)c2c(C)nc3c(OCc4c(F)cccc4F)cccn23)n1 (stereo not drawn) [Example 39]", "pEC50": 5.34}
{"molecule": "Cc1nc2c(OCc3c(F)cccc3F)cccn2c1C(=O)N[C@@](C)(CO)c1ccc(CO)cc1 (stereo in doubt) [Example 107a]", "pEC50": 5.82}
{"molecule": "Cc1nc2c(OCC3CCCCC3)cccn2c1C(=O)N[C@]1(c2ccccn2)C[C@@H](O)[C@@H](O)C1 [Example 68]", "pEC50": 4.85}

Consider the record given below.
**Q:** Fill blank: measured pEC50 of the molecule Cc1nc2c(OCc3c(F)cccc3F)cccn2c1C(=O)NC(C)(CO)c1nnn(CCO)n1 (stereo not drawn) [Example 75] is ____.
**A:** 5.04

###

- testedSystem: human purified sGC (heterodimer of sGCα1 and sGCβ1) (Homo sapiens (Human), UniProt Q02108+Q02153)
- testDescription: sGC activation test (cGMP produced, HTRF)
- conditionDescription: maximum activity of Preparation Example 200 compound (maximum 100 μM) taken as 100%; with SNP; read-out: EC50 (concentration giving 50% of maximum activity)
measureName: pEC50
Answers are plain numbers, as −log10 of the molar value.

Past entries and their recorded results:
{"molecule": "Cc1cnc([C@H](CO)NC(=O)c2c(C)nc3c(OCc4c(F)cccc4F)cccn23)s1", "pEC50": 5.68}
{"molecule": "Cc1nc2c(OCc3c(F)cccc3F)cccn2c1C(=O)NC(C)(CO)c1nnc(C(F)(F)F)o1 (stereo not shown)", "pEC50": 5.82}
{"molecule": "Cc1nc2c(OCc3c(F)cccc3F)cccn2c1C(=O)NC(CO)(CO)c1nnn(C(F)F)n1", "pEC50": 5.47}
{"molecule": "Cc1nc2c(OCc3c(F)cccc3F)cccn2c1C(=O)NCc1cccnc1[C@@H](O)[C@@H](C)O (racemic)", "pEC50": 4.96}
{"molecule": "Cc1nc2c(OCc3c(F)cccc3F)cccn2c1C(=O)NC(C)(CO)c1cnn(C)c1C (stereo not shown)", "pEC50": 4.68}

Record pEC50 for all entries; do not skip any.
1. Cc1nnc([C@](C)(CO)NC(=O)c2c(C)nc3c(OCc4c(F)cccc4F)cccn23)s1
2. Cc1nc2c(OCc3c(F)cccc3F)cccn2c1C(=O)NC(C)(CO)c1ccc(CO)cc1 (stereo not shown)

**A:**
1. 5.96
2. 5.85

src = patent US9278968B2
